Each item that follows carries a reported shrunken log2 fold change.
- Tested on: Escherichia coli TOP10
- TEST_METHOD_NOTES: shrunken log2 fold change of peptide-encoding DNA abundance (4.5 h post-induction vs induction); higher = less antimicrobial activity (less host growth inhibition)
- SETUP_CONDITIONS: time post-induction: 4.5 h; library: site-saturation at positions 5, 18, 19, 20

SEQUENCE_CONTENT	TARGET_UNDER_TEST	shrunken log2 fold change
RRIRDRPPRLPRPRPRPDRQPRP	Escherichia coli TOP10	0.0286
RRIRCRPPRLPRPRPRPCTRPRP	Escherichia coli TOP10	-0.321
RRIRTRPPRLPRPRPRPMYFPRP	Escherichia coli TOP10	-0.53
RRIRTRPPRLPRPRPRPMTHPRP	Escherichia coli TOP10	-0.633
RRIRHRPPRLPRPRPRPWKMPRP	Escherichia coli TOP10	0.00115
RRIRYRPPRLPRPRPRPFACPRP	Escherichia coli TOP10	0.0731
RRIRYRPPRLPRPRPRPSTKPRP	Escherichia coli TOP10	-0.225
RRIRNRPPRLPRPRPRPNLCPRP	Escherichia coli TOP10	-0.0109
RRIRQRPPRLPRPRPRPHCIPRP	Escherichia coli TOP10	0.0493
RRIRERPPRLPRPRPRPMYTPRP	Escherichia coli TOP10	-0.469
RRIRKRPPRLPRPRPRPLRNPRP	Escherichia coli TOP10	0.653
RRIRFRPPRLPRPRPRPKKFPRP	Escherichia coli TOP10	-0.128
RRIRPRPPRLPRPRPRPTSGPRP	Escherichia coli TOP10	0.173
RRIRKRPPRLPRPRPRPTDRPRP	Escherichia coli TOP10	0.209
RRIRARPPRLPRPRPRPHWLPRP	Escherichia coli TOP10	0.339
RRIRDRPPRLPRPRPRPSCIPRP	Escherichia coli TOP10	0.0916
RRIRARPPRLPRPRPRPHDTPRP	Escherichia coli TOP10	0.111
RRIRMRPPRLPRPRPRPYDLPRP	Escherichia coli TOP10	-0.242
RRIRARPPRLPRPRPRPIIWPRP	Escherichia coli TOP10	-0.419
RRIRNRPPRLPRPRPRPTSKPRP	Escherichia coli TOP10	-0.0758
RRIRCRPPRLPRPRPRPLHRPRP	Escherichia coli TOP10	0.06
RRIRQRPPRLPRPRPRPEMMPRP	Escherichia coli TOP10	0.151
RRIRNRPPRLPRPRPRPNLGPRP	Escherichia coli TOP10	-0.00992
RRIRLRPPRLPRPRPRPPGCPRP	Escherichia coli TOP10	0.558
RRIRLRPPRLPRPRPRPGTMPRP	Escherichia coli TOP10	-0.0422
RRIRIRPPRLPRPRPRPAMPPRP	Escherichia coli TOP10	0.0692
RRIRFRPPRLPRPRPRPGRNPRP	Escherichia coli TOP10	-0.173
RRIRQRPPRLPRPRPRPVVRPRP	Escherichia coli TOP10	0.169
RRIRPRPPRLPRPRPRPTQMPRP	Escherichia coli TOP10	0.395
RRIRRRPPRLPRPRPRPPWNPRP	Escherichia coli TOP10	0.474
RRIRARPPRLPRPRPRPTFFPRP	Escherichia coli TOP10	0.197
RRIRWRPPRLPRPRPRPQHTPRP	Escherichia coli TOP10	0.0837

###

- Test system: Escherichia coli TOP10;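 further: peptides expressed intracellularly from a pBAD plasmid library in pooled LB shake-flask culture, induced with 0.3% L-arabinose, DNA abundance read by NGS, three biological replicates, DESeq2 with apeglm shrinkage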
- TEST_METHOD_NOTES: shrunken log2 fold change of peptide-encoding DNA abundance (4.5 h post-induction vs induction); higher = less antimicrobial activity (less host growth inhibition)
- SETUP_CONDITIONS: time post-induction: 4.5 h; library: site-saturation at positions 5, 18, 19, 20

SEQUENCE_CONTENT	shrunken log2 fold change
RRIRWRPPRLPRPRPRPPSCPRP	0.0112
RRIRMRPPRLPRPRPRPRGTPRP	1.36
RRIRNRPPRLPRPRPRPWESPRP	0.291
RRIRERPPRLPRPRPRPWGPPRP	-0.0024
RRIRCRPPRLPRPRPRPKCHPRP	0.205
RRIRVRPPRLPRPRPRPNNIPRP	-0.937
RRIRKRPPRLPRPRPRPGMFPRP	-0.126
RRIRCRPPRLPRPRPRPQFRPRP	-0.434
RRIRKRPPRLPRPRPRPRMDPRP	0.236
RRIRFRPPRLPRPRPRPLCCPRP	-0.205
RRIRSRPPRLPRPRPRPWFLPRP	-0.565
RRIRERPPRLPRPRPRPDREPRP	-0.0729
RRIRERPPRLPRPRPRPWCSPRP	-0.177
RRIRHRPPRLPRPRPRPHQYPRP	-0.52
RRIRVRPPRLPRPRPRPPNCPRP	0.194

Measured values drawn from the supplement of paper PMC9112550 for this set.
